- target_entity: T1, cloned human β-adrenergic receptor subtype 2 (human, UniProt P07550 1-413)
- T1 construct: also called β2-AR; β2
- protocol_notes: radioligand displacement ((-)-[3H]CGP-12177), Ki from IC50 by Cheng-Prusoff
property_measured: Ki (µM)
Answers are plain numbers, in µM.

Look up Ki: β-cardiotoxin (ligand, also called beta-cardiotoxin; AY354198 protein) RKCLNTPLPLIYTTCPIGQDKCVKMTIKKLPSKYDVIRGCIDICPKSSADVEVLCCDTNKCNK
2.3

The origin of these recorded values is patent US20100062980A1.
